Biological target: BTK protein (Homo sapiens, UniProt Q06187)
Construct: endogenous in cells; host or cells: TMD-8 cells
Sequence (Q06187 whole entry): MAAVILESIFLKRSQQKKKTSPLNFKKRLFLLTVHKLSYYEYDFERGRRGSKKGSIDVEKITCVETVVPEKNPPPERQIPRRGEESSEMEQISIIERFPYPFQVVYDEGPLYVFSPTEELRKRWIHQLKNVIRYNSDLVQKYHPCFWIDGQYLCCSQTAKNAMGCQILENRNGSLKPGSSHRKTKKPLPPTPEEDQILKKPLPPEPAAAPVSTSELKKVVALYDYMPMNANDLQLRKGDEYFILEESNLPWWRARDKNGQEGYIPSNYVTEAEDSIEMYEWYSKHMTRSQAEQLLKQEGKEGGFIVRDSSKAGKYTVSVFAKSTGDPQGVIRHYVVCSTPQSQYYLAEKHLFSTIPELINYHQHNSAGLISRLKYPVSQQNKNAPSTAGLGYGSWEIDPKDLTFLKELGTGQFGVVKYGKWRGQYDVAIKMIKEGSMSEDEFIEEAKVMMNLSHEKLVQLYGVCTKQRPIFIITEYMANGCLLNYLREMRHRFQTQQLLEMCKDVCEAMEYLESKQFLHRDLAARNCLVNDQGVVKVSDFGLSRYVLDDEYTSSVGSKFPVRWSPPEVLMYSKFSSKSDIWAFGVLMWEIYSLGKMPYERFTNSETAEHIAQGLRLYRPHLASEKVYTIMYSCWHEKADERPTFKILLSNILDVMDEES
Assay: Measurement of BTK protein degradation ability in TMD-8 cells (Western blotting)
Assay type: cell-based
Conditions: compound 1 nM, harvested after 24 hours
Assay readout: BTK degradation (%) 1 nM
Just the number please, in %, no unit attached.

Sample answers from the record:
Cc1cc(-c2ccnc(Nc3ccc(C4CCN(CC5CCN(c6ccc7c(c6)C(=O)N(C6CCC(=O)NC6=O)C7=O)CC5)CC4)nc3)n2)ccc1CNC(=O)N1CC(OC(C)C)C1 (centres unmarked)    48
Cc1cc(-c2ccnc(Nc3ccc(N4CCN(CC5CCN(c6cccc(OC7CCC(=O)NC7=O)c6)CC5)CC4)cc3)n2)ccc1CNC(=O)N1CC(OC(C)C)C1 (centres unmarked)    60.5

# input compound: Cc1cc(-c2ccnc(Nc3ccc(N4CCN(C5CCN(C(=O)c6cccc(NC7CCC(=O)NC7=O)c6)CC5)CC4)cc3)n2)ccc1CNC(=O)N1CC(OC(C)C)C1 (centres unmarked) ; wanted: its BTK degradation (%) 1 nM −12.5

# input compound: Cc1cc(-c2ccnc(Nc3ccc(N4CCC(CN5CCC(c6ccc(NC7CCC(=O)NC7=O)cc6)CC5)CC4)cc3)n2)ccc1CNC(=O)c1cn(C(C)(C)C)nn1 (centres unmarked) ; wanted: its BTK degradation (%) 1 nM 71.0

# input compound: Cc1cc(-c2ccnc(Nc3ccc(N4CCN(CC5CN(c6ccc7c(c6)C(=O)N(C6CCC(=O)NC6=O)C7=O)C5)CC4)nc3)n2)ccc1CNC(=O)N1CC(OC(C)C)C1 (centres unmarked) ; wanted: its BTK degradation (%) 1 nM 46

====

Molecular target: BTK protein (Homo sapiens, UniProt Q06187)
Construct: endogenous in cells; host or cells: TMD-8 cells
Experiment: Measurement of BTK protein degradation ability in TMD-8 cells (Western blotting)
Assay type: cell-based
Settings: compound 1 nM, harvested after 24 hours
Parameter threshold = 10%. Response is Fulfilled when BTK degradation (%) 1 nM meets or exceeds it, else Not fulfilled.

Reference set, count: 4
Cc1cc(-c2ccnc(Nc3ccc(N4CC(CN5CCN(C(=O)c6cccc(NC7CCC(=O)NC7=O)c6)CC5)C4)cc3)n2)ccc1CNC(=O)N1CC(OC(C)C)C1 (centres unmarked)    Fulfilled
Cc1cc(-c2ccnc(Nc3ccc(N4CCN(CC5CN(c6cc7c(cc6F)C(=O)N(C6CCC(=O)NC6=O)C7=O)C5)CC4)cc3)n2)ccc1CNC(=O)N1CC(OC(C)C)C1 (centres unmarked)    Fulfilled
Cc1cc(-c2ccnc(Nc3ccc(CN4CCC(CN5CCC(c6cccc(N7CCC(=O)NC7=O)c6)CC5)CC4)cc3)n2)ccc1CNC(=O)c1cn(C(C)(C)C)nn1    Not fulfilled
Cc1cc(-c2ccnc(Nc3ccc(N4CCC(C(=O)N5CCC(c6ccc(NC7CCC(=O)NC7=O)cc6)CC5)CC4)cc3)n2)ccc1CNC(=O)N1CC(OC(C)C)C1 (centres unmarked)    Fulfilled

Can Cc1cc(-c2ccnc(Nc3ccc(C4CCN(CC5CCN(c6ccc(NC7CCC(=O)NC7=O)cn6)CC5)CC4)cc3)n2)ccc1CNC(=O)N1CC(OC(C)C)C1 (centres unmarked) be said to have BTK degradation (%) 1 nM at or above 10%? Fulfilled

====

Molecular target: BTK protein (Homo sapiens, UniProt Q06187)
Construct: endogenous in cells; host or cells: TMD-8 cells
Assay: Measurement of BTK protein degradation ability in TMD-8 cells (Western blotting)
Type: cell-based
Conditions: compound 10 nM, harvested after 24 hours
Assay readout: BTK degradation (%) 10 nM
Just the number please, in %, no unit attached.

Request body: readout BTK degradation (%) 10 nM, system BTK protein (Homo sapiens, UniProt Q06187), query `Cc1cc(-c2ccnc(Nc3ccc(N4CCN(CC5CCN(c6cccc(N7CCC(=O)NC7=O)c6)CC5)CC4)nc3)n2)ccc1CNC(=O)c1cn(C(C)(C)C)nn1` . Return the value. 96.5

Request body: readout BTK degradation (%) 10 nM, system BTK protein (Homo sapiens, UniProt Q06187), query `Cc1cc(-c2ccnc(Nc3ccc(C4CCN(CC5CCN(c6ccc(N7CCC(=O)NC7=O)cc6)CC5)CC4)cc3)n2)ccc1CNC(=O)c1cn(C(C)(C)C)nn1` . Return the value. 92.5

Request body: readout BTK degradation (%) 10 nM, system BTK protein (Homo sapiens, UniProt Q06187), query Cc1cc(-c2ccnc(Nc3ccc(N4CCN(CC5CN(c6ccc7c(c6)C(=O)N(C6CCC(=O)NC6=O)C7=O)C5)CC4)cc3)n2)ccc1CNC(=O)c1cnn(C(C)(C)C)c1 (stereo not drawn) . Return the value. 94.5
